# Subject of test: UniProt:P11388
# Sequence (P11388 whole entry): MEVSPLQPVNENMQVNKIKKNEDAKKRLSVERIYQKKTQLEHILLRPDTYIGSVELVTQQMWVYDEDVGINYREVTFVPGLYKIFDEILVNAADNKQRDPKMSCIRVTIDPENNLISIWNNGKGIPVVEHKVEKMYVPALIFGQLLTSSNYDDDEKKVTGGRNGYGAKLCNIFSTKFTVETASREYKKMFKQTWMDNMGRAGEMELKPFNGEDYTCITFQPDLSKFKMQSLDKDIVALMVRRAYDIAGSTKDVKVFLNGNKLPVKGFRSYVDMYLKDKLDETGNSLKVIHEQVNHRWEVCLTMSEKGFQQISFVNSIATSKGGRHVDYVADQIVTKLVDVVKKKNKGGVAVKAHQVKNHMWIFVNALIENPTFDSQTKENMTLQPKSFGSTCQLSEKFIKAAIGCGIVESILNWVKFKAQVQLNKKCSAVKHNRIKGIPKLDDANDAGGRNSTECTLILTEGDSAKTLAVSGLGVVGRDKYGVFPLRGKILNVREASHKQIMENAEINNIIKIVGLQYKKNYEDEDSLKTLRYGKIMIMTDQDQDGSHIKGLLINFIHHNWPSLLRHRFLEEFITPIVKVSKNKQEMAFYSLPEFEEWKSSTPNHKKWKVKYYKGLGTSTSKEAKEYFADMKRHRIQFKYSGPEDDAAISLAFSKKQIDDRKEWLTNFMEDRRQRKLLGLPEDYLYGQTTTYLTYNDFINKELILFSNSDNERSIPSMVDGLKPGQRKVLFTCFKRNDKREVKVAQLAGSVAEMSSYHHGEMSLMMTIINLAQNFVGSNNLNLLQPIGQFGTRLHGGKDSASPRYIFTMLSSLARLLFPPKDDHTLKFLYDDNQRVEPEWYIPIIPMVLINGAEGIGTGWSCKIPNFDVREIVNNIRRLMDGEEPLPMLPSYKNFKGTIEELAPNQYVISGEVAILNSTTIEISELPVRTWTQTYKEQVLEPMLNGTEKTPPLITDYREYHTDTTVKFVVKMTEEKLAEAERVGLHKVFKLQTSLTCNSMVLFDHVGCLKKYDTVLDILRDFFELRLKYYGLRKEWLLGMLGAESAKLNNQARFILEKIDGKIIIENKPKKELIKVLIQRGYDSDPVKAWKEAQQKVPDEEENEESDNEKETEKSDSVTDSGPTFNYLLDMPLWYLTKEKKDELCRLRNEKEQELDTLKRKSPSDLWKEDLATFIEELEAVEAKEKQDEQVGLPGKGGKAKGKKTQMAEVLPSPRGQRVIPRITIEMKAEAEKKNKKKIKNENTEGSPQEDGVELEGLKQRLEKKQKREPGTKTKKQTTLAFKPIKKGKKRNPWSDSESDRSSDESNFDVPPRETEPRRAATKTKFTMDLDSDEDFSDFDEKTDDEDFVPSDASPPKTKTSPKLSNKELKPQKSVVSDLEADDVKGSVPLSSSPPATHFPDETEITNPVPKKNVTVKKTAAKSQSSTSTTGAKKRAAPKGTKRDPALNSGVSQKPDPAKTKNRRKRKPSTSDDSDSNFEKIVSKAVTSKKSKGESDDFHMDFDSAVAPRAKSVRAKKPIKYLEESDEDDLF
# Test summary: Inhibition of human topoisomerase-2 alpha at 100 uM using supercoiled pBR322 DNA as substrate after 30 mins by agarose gel electrophoresis method relative to control
Metric: inhibition (%)
Output spec: scalar in %, unitless text.

// worked examples, inhibition included
COc1cccc2c(=O)c3c(OCc4ccccc4)cc(OCC4CO4)cc3oc12 (stereo not given) :: 3.3
COc1ccc(COc2cc(OCC3CO3)cc3oc4c(OC)cccc4c(=O)c23)cc1 (stereo not given) :: 0
O=c1c2ccccc2oc2cc(OCC3CO3)cc(OCc3cccc(Cl)c3)c12 (stereo not given) :: 0

Reported inhibition, molecule COc1cccc2c(=O)c3c(OCc4cccc(C(F)(F)F)c4)cc(OCC4CO4)cc3oc12 (stereo not given) : ____
0

And then CCCCCOc1cc(OCC(O)CNCCCC)cc2oc3ccccc3c(=O)c12 (stereo not given) , what is it?
29.4

And then COc1cccc(COc2cc(OCC3CO3)cc3oc4c(OC)cccc4c(=O)c23)c1 (stereo not given) , what is it?
0
